All values here come from ChEMBL document CHEMBL3885881.

Here the recorded LACTATE DEHYDROGENASE is given for each entry.
species: Rattus norvegicus; assay: DrugMatrix - Regimen: Daily Repeat; format: toxicity, organism-based, Sprague-Dawley; set-up: regimen Daily Repeat, gender Male, age 6-8 weeks; settings: in vivo, po, 0 mg/kg, 120 h, tissue Plasma, route oral GAVAGE, dose level Control, time 5 day, vehicle .5 % CMC
Kindly report the value followed by its unit.

| compound | LACTATE DEHYDROGENASE |
| --- | --- |
| C[C@](O)(CS(=O)(=O)c1ccc(F)cc1)C(=O)Nc1ccc(C#N)c(C(F)(F)F)c1 [(R)-BICALUTAMIDE] | 517.33 u/L |
| CNC(=C[N+](=O)[O-])NCCSCc1ccc(CN(C)C)o1 | 153.67 u/L |
| Clc1ccc2c(c1)C(N1CCNCC1)=Nc1ccccc1O2 | 146.5 u/L |
| CC(C)[C@H]1CC[C@H](C(=O)N[C@H](Cc2ccccc2)C(=O)O)CC1 [NATEGLINIDE] | 656.33 u/L |
| OC(CCN1CCCCC1)(c1ccccc1)C1CCCCC1 (stereo not drawn) | 90.5 u/L |
| CO[C@H]1/C=C/O[C@@]2(C)Oc3c(C)c(O)c4c(c3C2=O)C2=NC3(CCN(CC(C)C)CC3)NC2=C(NC(=O)/C(C)=C\C=C\[C@H](C)[C@H](O)[C@@H](C)[C@@H](O)[C@@H](C)[C@H](OC(C)=O)[C@@H]1C)C4=O | 153.67 u/L |

Give the value of LACTATE DEHYDROGENASE reported for the following: C[C@]1(Cn2ccnn2)[C@H](C(=O)O)N2C(=O)C[C@H]2S1(=O)=O
174 u/L

Give the value of LACTATE DEHYDROGENASE reported for the following: O=[N+]([O-])c1ccccc1
133.83 u/L

====

species: Rattus norvegicus; experiment: DrugMatrix - Regimen: Daily Repeat; type: toxicity, organism-based, Sprague-Dawley; parameters: regimen Daily Repeat, gender Male, age 6-8 weeks; conditions: in vivo, po, 0 mg/kg, 72 h, tissue Blood, route oral GAVAGE, dose level Control, time 3 day, […]
outcome_measure: EOSINOPHIL
Kindly report the value followed by its unit.

Example cases with answers are listed next.
| compound | EOSINOPHIL |
| --- | --- |
| COc1ccc2[nH]c([S+]([O-])Cc3ncc(C)c(OC)c3C)nc2c1 (stereo not given) | 0.5% |
| Clc1ccc(Cl)cc1 | 0.37% |
| CC(=O)Nc1cccc(O)c1 | 0% |

Give the value of EOSINOPHIL reported for the following: O=C(c1ccc(OCCN2CCCCC2)cc1)c1c(-c2ccc(O)cc2)sc2cc(O)ccc12
0.17%

Give the value of EOSINOPHIL reported for the following: CC(C)Cc1ccc(C(C)C(=O)O)cc1 (stereo not given)
0%

====

species on record: Rattus norvegicus; experiment: DrugMatrix - Regimen: Daily Repeat; assay type: toxicity, organism-based, Sprague-Dawley; set-up: regimen Daily Repeat, gender Male, age 6-8 weeks; details: in vivo, iv, 0 mg/kg, 72 h, tissue Blood, dose level Control, time 3 day, vehicle 100 % SALINE
outcome_measure: MEAN CORPUSCULAR HEMOGLOBIN (pg)
Give the value in pg but do not write pg after it.

Example cases with answers are listed next.
| compound | MEAN CORPUSCULAR HEMOGLOBIN [pg] |
| --- | --- |
| CCC1=C[C@@H]2CN(C1)Cc1c([nH]c3ccccc13)[C@@](C(=O)OC)(c1cc3c(cc1OC)N(C)[C@H]1[C@@](O)(C(=O)OC)[C@H](OC(C)=O)[C@]4(CC)C=CCN5CC[C@]31[C@@H]54)C2 | 24.17 |
| CCc1c2c(nc3ccc(OC(=O)N4CCC(N5CCCCC5)CC4)cc13)-c1cc3c(c(=O)n1C2)COC(=O)[C@]3(O)CC | 25.67 |
| COc1cccc2c1C(=O)c1c(O)c3c(c(O)c1C2=O)C[C@@](O)(C(=O)CO)C[C@@H]3O[C@H]1C[C@H](N)[C@@H](O)[C@H](C)O1 [EPIRUBICIN] | 25.67 |
| CC[C@]1(O)C[C@@H]2CN(CCc3c([nH]c4ccccc34)[C@@](C(=O)OC)(c3cc4c(cc3OC)N(C)[C@H]3[C@@](O)(C(=O)OC)[C@H](OC(C)=O)[C@]5(CC)C=CCN6CC[C@]43[C@@H]65)C2)C1 | 25.68 |
| CC(=O)N[C@@H]1[C@H](Oc2c3cc4cc2Oc2ccc(cc2Cl)[C@@H](O[C@@H]2O[C@@H](CO)[C@@H](O)[C@H](O)[C@@H]2NC(C)=O)[C@@H]2NC(=O)[C@H](NC(=O)[C@@H]4NC(=O)[C@H]4NC(=O)[C@@H](Cc5ccc(c(Cl)c5)O3)NC(=O)[C@H](N)c3ccc(O)c(c3)Oc3cc(O)cc4c3)c3ccc(O)c(c3)-c3c(O[C@H]4O[C@H](CO)[C@@H](O)[C@@H](O)[C@@H]4O)cc(O)cc3[C@@H](C(=O)O)NC2=O)O[C@@H](CO)[C@@H](O)[C@@H]1O | 23.8 |

Consider the record given below.
Give the value of MEAN CORPUSCULAR HEMOGLOBIN reported for the following: COc1cccc2c1C(=O)c1c(O)c3c(c(O)c1C2=O)C[C@@](O)(C(=O)CO)C[C@@H]3O[C@H]1C[C@H](N)[C@H](O)[C@H](C)O1
25.28
